test-system: human FPR1 (Homo sapiens)
experiment: FPR1 cyclic adenosine monophosphate (cAMP) assay
measurement-context: CHO cells overexpressing human FPR1; forskolin 10 μM; inhibition of cAMP production; HTRF; read-out: hFPR1 cAMP2 EC50
Experimental: FPR2 and FPR1 Cyclic Adenosine Monophosphate (cAMP) Assays. […] The level of intracellular cAMP was determined using the HTRF HiRange cAMP assay reagent kit (Cisbio) according to manufacturer's instruction. […] After a 1-h room temperature incubation, time-resolved fluorescence intensity was measured using the Envision (Perkin-Elmer) at 400 nm excitation and dual emission at 590 nm and 665 nm. […]
Binary call on EC50 with cut-off 700 nM: strictly below means y, and equality or higher means n.

Is EC50 strictly under 700 nM for the entry "COc1cc(F)c(-n2cc(C(=O)N3CCNC(=O)C3)nc2NC(=O)c2ccc(OC(F)F)cc2)c(F)c1" ?
n

Others:
Confirm or reject: EC50 of "COc1cc(F)c(-n2cc(C3CC4(CNC4)C3)nc2NC(=O)c2ccc(OC(F)F)cc2)c(F)c1" lies strictly below 700 nM
n

For "COc1cc(F)c(-n2cc(Cc3ccccc3)nc2NC(=O)c2ccc(OC(F)F)cc2)c(F)c1" , is the recorded EC50 below the cut-off of 700 nM?
n

For this compound, is EC50 lower than 700 nM? "COc1ccc(-n2cc(C(C)(C)C)nc2NC(=O)c2ccc(OC(F)F)cc2)cc1"
y

Could you please tell me whether EC50 recorded for "COc1cc(F)c(-n2cc(-c3ccc(Cl)c(C)c3)nc2NC(=O)c2ccc(OC(F)F)cc2)c(F)c1" is less than 700 nM?
y

Please check: EC50 for "COc1cc(F)c(-n2cc(C(=O)N3CC[C@H](O)C3)nc2NC(=O)c2ccc(OC(F)F)cc2)c(F)c1" , strictly under 700 nM or not?
n

Given the entry "COc1cc(F)c(-n2cc(C(=O)N3CCC(O)CC3)nc2NC(=O)c2ccc(OC(F)F)cc2)c(F)c1" , would its reported EC50 be below 700 nM?
n

* * *

test-system: human FPR1 (Homo sapiens, UniProt P21462)
Sequence (P21462 1-350): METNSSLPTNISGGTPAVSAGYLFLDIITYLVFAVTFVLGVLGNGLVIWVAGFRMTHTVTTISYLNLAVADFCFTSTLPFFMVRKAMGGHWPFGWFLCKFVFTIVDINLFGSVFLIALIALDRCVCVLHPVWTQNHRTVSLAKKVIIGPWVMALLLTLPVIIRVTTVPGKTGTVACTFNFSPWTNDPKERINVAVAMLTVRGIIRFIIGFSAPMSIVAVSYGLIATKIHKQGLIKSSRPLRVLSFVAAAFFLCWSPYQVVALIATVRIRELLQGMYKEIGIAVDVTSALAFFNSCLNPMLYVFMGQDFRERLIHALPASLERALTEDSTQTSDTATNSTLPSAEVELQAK
experiment: FPR1 cyclic adenosine monophosphate (cAMP) assay
measurement-context: CHO cells overexpressing human FPR1; forskolin 10 μM; inhibition of cAMP production; HTRF; read-out: hFPR1 cAMP2 EC50
# reported EC50; entries follow
Please respond with the number in nM and leave the unit unwritten.

Complete the entry with EC50 for COc1cc(F)c(-n2cc(C3CC(NS(C)(=O)=O)C3)nc2NC(=O)c2ccc(OC(F)F)cc2)c(F)c1 (stereo not drawn) [Example 83]
400

Output EC50 of CCOC(=O)c1cc(-c2cn(-c3ccc(OC)cc3)c(NC(=O)c3ccc(OC(F)F)cc3)n2)on1 [Example 29]
32

Give me measured EC50, please, for this compound: COc1cc(F)c(-n2cc(C(=O)Nc3cn[nH]c3)nc2NC(=O)c2ccc(OC(F)F)cc2)c(F)c1 [Example 62]
830

New cases:
Report EC50 for COc1cc(F)c(-n2cc(Cc3nc4ncc(F)cc4[nH]3)nc2NC(=O)c2ccc(OC(F)F)cc2)c(F)c1 [Example 77]
120
